From: patent US20240287124A1

tested on: HIV-1 wild-type (R8) virus; experiment: Viral KINetics in Green cells (VIKING) assay, HIV-1 replication in MT4-GFP reporter cells; type: cell-based; details: Human immunodeficiency virus 1, 10% normal human serum, MT4-GFP cells, HIV-1 wild-type (R8); read-out: Viking (10% NHS), IC50
property label: IC50

// known answers, use as guide
{"columns": ["compound", "system tested", "IC50"],
 "data": [
  ["C#C[C@]1(COC(=O)OCCC23CC(C2)C3)O[C@@H](n2ccc3c(N)nc(Cl)nc32)C[C@@H]1OC(=O)OCCC12CC(C1)C2 [Example 169]", "HIV-1 wild-type (R8) virus", "13 nM"],
  ["C#C[C@]1(COC(=O)OC(CC)CC)O[C@@H](n2ccc3c(N)nc(Cl)nc32)C[C@@H]1O [Example 86]", "HIV-1 wild-type (R8) virus", "13 nM"],
  ["C#C[C@]1(CO)O[C@@H](n2ccc3c(NC(=O)Cc4ccccc4)nc(Cl)nc32)C[C@@H]1O [Example 199]", "HIV-1 wild-type (R8) virus", "230 nM"],
  ["C#C[C@]1(CO)O[C@@H](n2ccc3c(NC(=O)OCCCCC[C@@H]4SC[C@@H]5NC(=O)N[C@@H]54)nc(Cl)nc32)C[C@@H]1O [Example 151]", "HIV-1 wild-type (R8) virus", "17 nM"],
  ["C#C[C@]1(COC(=O)CC(C)(C)C)O[C@@H](n2ccc3c(N)nc(Cl)nc32)C[C@@H]1O [Example 89]", "HIV-1 wild-type (R8) virus", "29 nM"]
]}

Would you kindly look at the next entry?
Query :: Looking for the measured IC50 of C#C[C@]1(CO)O[C@@H](n2ccc3c(N(C(=O)CCC45CC6CC(CC(C6)C4)C5)C(=O)CCC45CC6CC(CC(C6)C4)C5)nc(Cl)nc32)C[C@@H]1O [Example 217] , can you help?
Result :: > 4030 nM

* * *

test system: HIV-1 wild-type (R8) virus; assay: Viral KINetics in Green cells (VIKING) assay, HIV-1 replication in MT4-GFP reporter cells; type: cell-based; details: Human immunodeficiency virus 1, 10% normal human serum, MT4-GFP cells, HIV-1 wild-type (R8); read-out: Viking (10% NHS), IC50
Listed here are compounds together with their documented pIC50.
Reminder that pIC50 means the negative base-10 logarithm of the concentration expressed in mol/L.

// below: answered compounds
{"columns": ["chemical smiles", "experimental value"],
 "data": [
  ["C#C[C@]1(COC(=O)CCC23CC4CC(CC(C4)C2)C3)O[C@@H](n2ccc3c(N)nc(Cl)nc32)C[C@@H]1O", 8.41],
  ["C#C[C@]1(COC(=O)O[C@H](C)c2ccccc2)O[C@@H](n2ccc3c(N)nc(Cl)nc32)C[C@@H]1O", 8.43],
  ["C#C[C@]1(COC(=O)OCCCCCC)O[C@@H](n2ccc3c(N)nc(Cl)nc32)C[C@@H]1O", 8.42],
  ["C#C[C@]1(COC(=O)c2ccccn2)O[C@@H](n2ccc3c(N)nc(Cl)nc32)C[C@@H]1O", 8.80],
  ["C#C[C@]1(COC(=O)CCCCCCCCCCCCCCC)O[C@@H](n2ccc3c(N)nc(Cl)nc32)C[C@@H]1O", 8.25],
  ["C#C[C@]1(CO)O[C@@H](n2ccc3c(N)nc(Cl)nc32)C[C@@H]1OC(=O)OCc1oc(=O)oc1C", 8.64]
]}

Lab note: next compound to report on.
Query :: Any idea what its pIC50 is? The compound is C#C[C@]1(COC(=O)CCCC[C@@H]2SC[C@@H]3NC(=O)N[C@@H]32)O[C@@H](n2ccc3c(N)nc(Cl)nc32)C[C@@H]1O
Result :: 8.49

* * *

The entries below are paired with their reported solubility at 24 h.
test: Aqueous solubility in PBS, pH 7.4; assay type: physicochemical; details: phosphate buffered saline, pH 7.4, aqueous buffer, thermodynamic from solid, pH 7.4 phosphate buffered saline, 24 hours, amorphous or crystalline material; read-out: Aqu. Solubility
Use µg/mL as the unit, but write only the number.

{"columns": ["chemical smiles", "solubility at 24 h / µg/mL"],
 "data": [
  ["C#C[C@]1(COC(=O)OCc2ccccc2)O[C@@H](n2ccc3c(N)nc(Cl)nc32)C[C@@H]1OC(C)=O", 1.2],
  ["C#C[C@]1(CO)O[C@@H](n2ccc3c(N)nc(Cl)nc32)C[C@@H]1OC(=O)Cc1ccc(Cl)cc1", 3.7],
  ["C#C[C@]1(CO)O[C@@H](n2ccc3c(N)nc(Cl)nc32)C[C@@H]1OC(=O)CCC", 27]
]}

Now for another entry.
Query :: Entry under review: C#C[C@]1(COC(=O)Oc2ccccc2)O[C@@H](n2ccc3c(N)nc(Cl)nc32)C[C@@H]1O . Reported solubility at 24 h?
Result :: 164

* * *

system: HIV-1 wild-type (R8) virus; assay: Viral KINetics in Green cells (VIKING) assay, HIV-1 replication in MT4-GFP reporter cells; type: cell-based; conditions: Human immunodeficiency virus 1, 10% normal human serum, MT4-GFP cells, HIV-1 wild-type (R8); read-out: Viking (10% NHS), IC50
pIC50: −log10 of the molar value.
Record Satisfied whenever pIC50 is at 8 or higher; record Not satisfied when lower.

See these solved cases before continuing.
{"columns": ["chemical smiles", "answer label"],
 "data": [
  ["C#C[C@]1(CO)O[C@@H](n2ccc3c(N)nc(Cl)nc32)C[C@@H]1OCOC(=O)OC(C)C", "Satisfied"],
  ["C#C[C@]1(COC(=O)OCc2cccnc2)O[C@@H](n2ccc3c(N)nc(Cl)nc32)C[C@@H]1OC(=O)OCc1ccccc1", "Satisfied"],
  ["C#C[C@]1(COC(=O)C23CC(C2)C3)O[C@@H](n2ccc3c(N)nc(Cl)nc32)C[C@@H]1OC(=O)OCCC12CC3CC(CC(C3)C1)C2", "Not satisfied"],
  ["C#C[C@]1(CO)O[C@@H](n2ccc3c(N)nc(Cl)nc32)C[C@@H]1OC(=O)Oc1ccccc1", "Satisfied"],
  ["C#C[C@]1(CO)O[C@@H](n2ccc3c(NC(=O)CCCCCCCCCCCCC)nc(Cl)nc32)C[C@@H]1O", "Not satisfied"]
]}

Query :: // inclusive: pIC50 at least 8? input: C#C[C@]1(COC(=O)OCCCCC[C@@H]2SC[C@@H]3NC(=O)N[C@@H]32)O[C@@H](n2ccc3c(NC(=O)CCc4ccccc4)nc(Cl)nc32)C[C@@H]1O
Result :: Not satisfied

Query :: Param item: C#C[C@]1(COC(=O)OCc2ccc[nH]c2=O)O[C@@H](n2ccc3c(N)nc(Cl)nc32)C[C@@H]1OC(=O)OCc1ccc[nH]c1=O
Result :: Satisfied

Query :: Again, but for C#C[C@]1(COC(=O)OCCCCC[C@@H]2SC[C@@H]3NC(=O)N[C@@H]32)O[C@@H](n2ccc3c(N)nc(Cl)nc32)C[C@@H]1O
Result :: Satisfied

Query :: Try the compound C#C[C@]1(COC(=O)OCc2cc[nH]c(=O)c2)O[C@@H](n2ccc3c(N)nc(Cl)nc32)C[C@@H]1O
Result :: Satisfied

Query :: Same question for C#C[C@]1(COC(=O)OCc2oc(=O)oc2C)O[C@@H](n2ccc3c(N)nc(Cl)nc32)C[C@@H]1OC(=O)OCc1oc(=O)oc1C please.
Result :: Satisfied

Query :: Consider next the compound C#C[C@]1(COC(=O)OCCCCCCCC)O[C@@H](n2ccc3c(N)nc(Cl)nc32)C[C@@H]1OC(=O)CC in the same way.
Result :: Not satisfied

* * *

assay: Aqueous solubility in PBS, pH 7.4; format: physicochemical; settings: phosphate buffered saline, pH 7.4, aqueous buffer, thermodynamic from solid, pH 7.4 phosphate buffered saline, 24 hours, amorphous or crystalline material; read-out: Aqu. Solubility
property label: solubility at 24 h (µg/mL)
Supply the numeric figure in µg/mL, leaving out any unit text.

Query :: Which solubility at 24 h value is on record for C#C[C@]1(COC(=O)OCCCCCCCCCC)O[C@@H](n2ccc3c(N)nc(Cl)nc32)C[C@@H]1O ?
Result :: 0.45

Query :: Field entry: C#C[C@]1(COC(=O)C2CCCCC2)O[C@@H](n2ccc3c(N)nc(Cl)nc32)C[C@@H]1O
Result :: 157

Query :: Try C#C[C@]1(COC(=O)C(C)C)O[C@@H](n2ccc3c(N)nc(Cl)nc32)C[C@@H]1O next.
Result :: 285

Query :: Query C#C[C@]1(COC(=O)OCc2ccccc2)O[C@@H](n2ccc3c(N)nc(Cl)nc32)C[C@@H]1OC(=O)CCC next
Result :: 2.3

* * *

Collected IC50 values appear next to each entry.
test system: HIV-1 wild-type (R8) virus; experiment: Viral KINetics in Green cells (VIKING) assay, HIV-1 replication in MT4-GFP reporter cells; type: cell-based; conditions: Human immunodeficiency virus 1, 10% normal human serum, MT4-GFP cells, HIV-1 wild-type (R8); read-out: Viking (10% NHS), IC50
# number then unit; no other words

{"columns": ["compound", "IC50"],
 "data": [
  ["C#C[C@]1(CO)O[C@@H](n2ccc3c(N)nc(Cl)nc32)C[C@@H]1OC(=O)OCc1ccccc1 [Example 27]", "3.1 nM"],
  ["C#C[C@]1(CO)O[C@@H](n2ccc3c(N)nc(Cl)nc32)C[C@@H]1OC(=O)OCCCCC [Example 13]", "2.2 nM"],
  ["C#C[C@]1(COC(=O)CC23CC(C2)C3)O[C@@H](n2ccc3c(N)nc(Cl)nc32)C[C@@H]1O [Example 97]", "1.6 nM"],
  ["C#C[C@]1(COC(=O)OCc2ccccc2)O[C@@H](n2ccc3c(NC(=O)CCc4ccccc4)nc(Cl)nc32)C[C@@H]1O [Example 202]", "146 nM"],
  ["C#C[C@]1(COC(=O)OCc2ccccc2)O[C@@H](n2ccc3c(N)nc(Cl)nc32)C[C@@H]1OC(=O)CCCCCCC [Example 211]", "4 nM"],
  ["C#C[C@]1(CO)O[C@@H](n2ccc3c(N)nc(Cl)nc32)C[C@@H]1OC(=O)OC(C)C [Example 1]", "74 nM"]
]}

Query :: I would be grateful if you could share the reported IC50 for C#C[C@]1(COC(=O)C(CC)CC)O[C@@H](n2ccc3c(N)nc(Cl)nc32)C[C@@H]1O [Example 40] .
Result :: 5.5 nM

Query :: Ok, now C#C[C@]1(COC(=O)OCc2ccccc2)O[C@@H](n2ccc3c(N)nc(Cl)nc32)C[C@@H]1OC(=O)CCC [Example 194]
Result :: 17 nM

Query :: Input C#C[C@]1(COC(=O)CCCC)O[C@@H](n2ccc3c(N)nc(Cl)nc32)C[C@@H]1O [Example 15]
Result :: 2.3 nM

Query :: Field entry: C#C[C@]1(CO)O[C@@H](n2ccc3c(N)nc(Cl)nc32)C[C@@H]1OC(=O)OCc1cc[nH]c(=O)c1 [Example 159]
Result :: 14 nM

Query :: Okay, and C#C[C@]1(COC(=O)OCc2ccccc2)O[C@@H](n2ccc3c(N)nc(Cl)nc32)C[C@@H]1OC(=O)OCc1ccccc1 [Example 214] ?
Result :: 4.7 nM

Query :: Also, C#C[C@]1(COC(=O)CCCCC)O[C@@H](n2ccc3c(N)nc(Cl)nc32)C[C@@H]1OC(=O)OCc1cccnc1 [Example 192] please.
Result :: 6.5 nM

Query :: And the next one, C#C[C@]1(COC(=O)OCc2ccc[nH]c2=O)O[C@@H](n2ccc3c(N)nc(Cl)nc32)C[C@@H]1OC(=O)OCc1ccccc1 [Example 94] ?
Result :: 6.1 nM

Query :: Would you mind doing C#C[C@]1(CO)O[C@@H](n2ccc3c(N)nc(Cl)nc32)C[C@@H]1OC(C)=O [Example 180] as well?
Result :: 27 nM
